# cytotoxicity at 10 µM per record follows
- Run description: Toxicity liver stage against HepG2, at 10uM
- Format: cell-based
- Parameters: test concentration 10 uM, cell line HepG2-A16-CD81EGFP
- Details: human, HepG2-A16-CD81EGFP cells; read-out: INHIBITION
Measurement name: cytotoxicity at 10 µM (%)

{"columns": ["Compound", "Measurement"],
 "data": [
  ["CN(C)C(=O)N1C[C@H]2CC[C@@H](C1)N(C/C=C/c1ccc(F)cc1)C2", -0.545],
  ["Cc1nc2ccc(-n3ncnc3[C@@H]3CCCN3S(C)(=O)=O)cc2s1", -11.5],
  ["Cc1cc(N2CCCN(CCc3ccccc3)CC2)ccn1", -3.67],
  ["Cc1cc(N2CCN(Cc3cn(C)nc3C)CC2)cc(C2CCCN2)n1 (stereo not given)", 0.525],
  ["Cc1ccc(CN(CCN(C)C)Cc2ncc[nH]2)s1", -10.5],
  ["Fc1ccc2[nH]c(C3CCCN3CCc3ccccn3)nc2c1 (stereo not given)", -9.7],
  ["O=C(NCc1nn(-c2ccccc2)c2c1CCC2)NC1CC1", -9.14],
  ["Cc1nc(CN(Cc2ccccc2F)C2CCC2)no1", 6.95],
  ["CCC(=O)N1CCCN(C(=O)c2cc(C)cc(Br)c2O)CC1", 7.12],
  ["COc1ccc(CCC2CCCN(C(=O)c3cnc(N)nc3C)C2)cc1 (stereo not given)", 1.14],
  ["CCNC(=O)CCS(=O)(=O)Cc1ccn(-c2cccc(F)c2)n1", 11.1],
  ["O=C(O)c1cccc(CC2CCN(c3cnccn3)CC2)c1", -121],
  ["COc1ccccc1NC(=O)NC(C)c1nc[nH]n1 (stereo not given)", 2.8],
  ["CC(C)n1cc(CN2CCCN(C(=O)c3cccnc3O)CC2)cn1", 4.29],
  ["O=C(Cc1csc(-c2ccoc2)n1)NCCCN1CCCCC1", 12.6],
  ["COc1cccc(Cn2ncnc2COC(C)C)c1", -5.62],
  ["O=C(NCC(=O)N1CCCC1Cc1cccc(F)c1)c1ccccn1 (stereo not given)", -8.51],
  ["CCCNC(=O)c1nn(CC)cc1NC(=O)c1cn(C)nc1C", -5.63],
  ["COc1ccccc1CN1CCC(Cc2cnc(CN(C)C)cn2)CC1", -6.45],
  ["COc1ccccc1-c1nnc([C@H]2CCN(C(C)=O)C2)o1", 4.71],
  ["COc1ccc(-n2ncc3c2NC(=O)CSC3C(C)C)cc1 (stereo not given)", 17.4],
  ["CS(=O)(=O)CCNCc1ccc(OCc2ccccn2)cc1", -128],
  ["Cn1cnc2c1CCN(Cc1cccc(C(N)=O)c1)C2", -16.8],
  ["CN1CCN(C(=O)N2CCCC2)Cc2cccnc21", -3.66],
  ["Fc1ccccc1CN1C[C@H](OCC2CCOCC2)[C@H]2OCCC[C@H]21", -2.4]
]}

* * *

- Run description: Toxicity liver stage against HepG2, at 10uM
- Type: cell-based
- Set-up: test concentration 10 uM, cell line HepG2-A16-CD81EGFP
- Details: human, HepG2-A16-CD81EGFP cells; read-out: INHIBITION
Reported cytotoxicity at 10 µM by item:

{"columns": ["Compound", "cytotoxicity at 10 µM"],
 "data": [
  ["COC(=O)c1ccc(NCc2csc(C)n2)cc1Cl", "-5.08%"],
  ["CNS(=O)(=O)CCN1CC(c2ccccc2)(c2ccccc2)CCC1=O", "-7.91%"],
  ["Cc1cnc(CN(C)C2CCN(Cc3nc4c(F)cccc4[nH]3)C2)o1 (stereo unspecified)", "2.53%"],
  ["COc1ccc(-c2n[nH]cc2CN(C)Cc2ccoc2)c(F)c1", "-0.174%"],
  ["O=C1CCC(c2ccccc2)=NN1CN1CCCCCC1", "-86.3%"],
  ["CC(C)(C)n1ncc2c(=O)n(CC(=O)NCCc3ccccc3)cnc21", "-11.3%"],
  ["CCC(CC)C(CNC(=O)Nc1cnn(CCOC)c1)N(C)C (stereo unspecified)", "-6.87%"],
  ["O=C1CC2(CCN(S(=O)(=O)c3cccs3)C2)CN1c1cccc(F)c1 (stereo unspecified)", "-1.51%"],
  ["Cc1nc2ccccn2c1CC(=O)N[C@@H]1CC[C@@H](N2CCCC2)[C@@H]1O", "-12.4%"],
  ["CCOCCN1C[C@H](C(=O)Nc2cccnc2)[C@@H]2CCO[C@@H]2C1", "-101%"],
  ["CCc1nc(Cn2c(=O)c3c(C(F)(F)F)cc(C)nc3n2C)no1", "2.58%"]
]}
